# Measured target: T1, recombinant Fc-KAAG1 fusion protein (full-length KAAG1) (human, UniProt Q9UBP8 1-84, biotinylated with NHS-biotin (sites not given))
# T1 construct: also called recombinant human KAAG1; not shown: human Fc domain encoded by expression plasmid pYD5; vector-encoded residues between the Fc and the BamHI cloning site of pYD5
# T1 sequence: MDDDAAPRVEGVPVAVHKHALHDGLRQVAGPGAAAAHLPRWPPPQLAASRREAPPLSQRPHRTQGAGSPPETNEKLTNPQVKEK
# Experiment summary: ELISA
Listed here are binders together with their documented OD450.

Record excerpt, results attached:
Binder	Observation type	Readout value
3G10 mouse anti-KAAG1 Fab (Fab, V domains shown, Recombinant mouse Fab prepared from E. coli; also called 3G10 Fab; well G10) VH: EIQLQQSGPELVKPGASVKISCKASGYTFTDNYMNWVKQSHGKSLEWIGDINPYYGTTTYNQKFKGKATLTVDKSSRTAYMELRGLTSEDSAVYYCARDDWFDYWGQGTLVTVSA VL: DVLMTQTPRSLSVSLGDQASISCRSSQSLLHSNGNTYLEWYLQKPGQPPKVLIYKVSNRFSGVPDRFSGSGSGTDFTLKISGVEAEDLGVYYCFQGSHVPLTFGAGTKLELK	OD450	2.78
3D3 mouse anti-KAAG1 Fab (Fab, V domains shown, Recombinant mouse Fab prepared from E. coli, from Omniclonal AL0003Z1; also called 3D3 Fab) VH: EVQLQQSVAELVRPGASVTLSCKASGYIFTDYEIHWVKQTPVHGLEWIGVIDPETGNTAFNQKFKGKATLTADISSSTAYMELSSLTSEDSAVYYCMGYSDYWGQGTTLTVSS VL: DIVMTQSPSSLAVSIGQKVTMNCKSSQSLLNSNFQKNFLAWYQQKPGQSPKLLIYFASTRESSIPDRFIGSGSGTDFTLTISSVQAEDLADYFCQQHYSTPLTFGAGTKLELK	OD450	1.21
Fab of well C2 (Omniclonal AL0003Z1 plate) (Fab, V domains shown) VH: DVQLQESGPDLVKPSQSLSLTCTVTGFSITSGYGWHWIRQFPGNKLEWMGYISFNGDSNYNPSLKSRISITRDTSKNQFFLQLNSVTSEDTATYYCASSYDGLFAYWGQGPLVTVSA VL: DIQMTQSPSSMYASLGERVTLTCKASQDIHNYLNWFQQKPGKSPKTLIHRANRLVAGVPSRFSGSGSGQDYSLTISSLEYEDLGIYYCLQYDAFPLTFGAGTKLELK	OD450	0.32

**Q:** So what does the record say about OD450 for Fab of well E10 (Omniclonal AL0003Z1 plate) (Fab, V domains shown) VH: EVQLQQSGPELVKPGASVKISCKASGDTFTDYYMNWVKQSHGKSLEWIGDINPNYGGITYNQKFKGKATLTVDTSSSTAYMELRGLTSEDSAVYYCQAYYRNSDYWGQGTTLTVSS VL: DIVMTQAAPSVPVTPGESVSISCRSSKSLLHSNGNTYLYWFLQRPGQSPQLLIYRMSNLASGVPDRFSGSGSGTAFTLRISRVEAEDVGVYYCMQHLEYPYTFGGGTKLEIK ?
**A:** 0.02

**Q:** So what does the record say about OD450 for A9 (Fab, V domains shown, also called Fab of well A9) VH: QVQVQQPGAELVRPGASVTLSCKASGYIFTDYEVHWVRQRPVHGLEWIGVIDPETGDTAYNQKFKGKATLTADKSSSTAYMELSSLTAEDSAVYYCIGYADYWGQGTTLTVSS VL: DIVMTQSPSSLAMSLGQKVTMSCKSSQSLLNSNNQLNYLAWYQQKPGQSPKLLVYFASTRKSGVPDRFIGSGSGTDFTLTITSVQAEDLADYFCQQHFNTPLTFGAGTKLELK ?
**A:** 1.53

**Q:** So what does the record say about OD450 for 3C4 mouse anti-KAAG1 Fab (Fab, V domains shown, Recombinant mouse Fab prepared from E. coli; also called 3C4 Fab; well C4) VH: EVQLQESGPDLVKPSQSLSLTCTVTGFSITSGYGWHWIRQFPGNKLEWMGYINYDGHNDYNPSLKSRISITQDTSKNQFFLQLNSVTTEDTATYYCASSYDGLFAYWGQGTLVTVSA VL: DIVMSQSPSSMYASLGERVTITCKASQDIHNFLNWFQQKPGKSPKTLIFRANRLVDGVPSRFSGSGSGQDYSLTISSLEFEDLGIYSCLQYDEIPLTFGAGTKLELR ?
**A:** 0.25

**Q:** So what does the record say about OD450 for Fab of well D1 (Omniclonal AL0003Z1 plate) (Fab, V domains shown) VH: EVQLQESGPDLVKPSQSLSLTCTVTGFSITSGYGWHWIRQFPGDKLEWMGYISFNGDYNYNPSLKSRISITRDTSKNQFFLQLSSVTTEDTATYYCASSYDGLFAYWGQGTLVTVSA VL: DIKMTQSPSSMYASLGERVTITCKASQDIHTYLNWFQQKPGKSPETLIYRANRLVDGVPSRFSGSGSGQDYSLTISSLEYEDMGIYYCLQYDEFPLTFGAGTKLELK ?
**A:** 0.15

**Q:** So what does the record say about OD450 for G12 (Fab, V domains shown, also called Fab of well G12) VH: EVQLQQSVAELVRPGASVTVSCKASGYIFTDYEIHWVKQTPAHGLEWIGVIDPETGNTAFNQKFKGKATLTADISSSTAYMELSSLTSEDSAVYYCMGYSDYWGQGTTLTVSS VL: DIVMTQSPKFMSTSVGDRVSITCKASQDVGTAVAWYQQKPGQSPELLIYWTSTRHTGVPDRFSGSGSGTDFTLTISSVQAEDLADYFCQQHYSIPLTFGAGTKLELR ?
**A:** 1.38

Every entry's value here was drawn from patent US20110223107A1.
